The reported numbers originate from ChEMBL document CHEMBL2417468.

assay: Growth inhibition of human DWD cells after 48 hrs by sulforhodamine B assay; type: functional
Label T when GI50 < 200 nM; otherwise F.

1. COc1cc([C@@H]2c3cc4c(cc3[C@@H](NC(=O)c3ccc(NC(=O)Nc5ccc(Br)s5)cc3)[C@H]3COC(=O)[C@H]23)OCO4)cc(OC)c1OC: T
2. COc1cc([C@@H]2c3cc4c(cc3[C@@H](NC(=O)c3ccc(NC(=O)NCc5ccco5)cc3)[C@H]3COC(=O)[C@H]23)OCO4)cc(OC)c1OC: F
3. COc1cc([C@@H]2c3cc4c(cc3[C@@H](NC(=O)c3ccc(NC(=O)Nc5cccc(Cl)c5)cc3)[C@H]3COC(=O)[C@H]23)OCO4)cc(OC)c1OC: F
4. COc1cc([C@@H]2c3cc4c(cc3[C@@H](NC(=O)c3ccc(NC(=O)Nc5ccc(Cl)cc5)cc3)[C@H]3COC(=O)[C@H]23)OCO4)cc(OC)c1OC: T
5. COc1cc([C@@H]2c3cc4c(cc3[C@@H](NC(=O)c3ccc(NC(=O)NCCBr)cc3)[C@H]3COC(=O)[C@H]23)OCO4)cc(OC)c1OC: T
6. COc1cc([C@@H]2c3cc4c(cc3[C@@H](NC(=O)c3ccc(NC(=O)Nc5ccc(F)c(Cl)c5)cc3)[C@H]3COC(=O)[C@H]23)OCO4)cc(OC)c1OC: F
